Where do the numbers come from? From patent US10844045B2.

Each record here notes measured Solubility.
Assay: Solubility of salt forms
Format: physicochemical
Conditions: read-out: Solubility
MEASURE: Solubility (µg/mL)

MOLECULE: C=CC(=O)Nc1cc(Nc2nccc(-c3cn(C)c4ccccc34)n2)c(OC)cc1OCCN(C)C.Cc1ccc(S(=O)(=O)O)cc1 [Compound 5]
TEST_VALUE: 530
--
MOLECULE: C=CC(=O)Nc1cc(Nc2nccc(-c3cn(C)c4ccccc34)n2)c(OC)cc1OCCN(C)C.Cl [Compound 3]
TEST_VALUE: 810

====

Assay: Dynamic vapor sorption (DVS)
Type: physicochemical
MEASURE: DVS Sorption (%)

COMPOUND: C=CC(=O)Nc1cc(Nc2nccc(-c3cn(C)c4ccccc34)n2)c(OC)cc1OCCN(C)C [3 (Form 2B)]
MEASURE: DVS Sorption
RESULT_UNIT: %
TEST_VALUE: 14.44
--
COMPOUND: C=CC(=O)Nc1cc(Nc2nccc(-c3cn(C)c4ccccc34)n2)c(OC)cc1OCCN(C)C [Compound 4]
MEASURE: DVS Sorption
RESULT_UNIT: %
TEST_VALUE: 10.60
--
COMPOUND: C=CC(=O)Nc1cc(Nc2nccc(-c3cn(C)c4ccccc34)n2)c(OC)cc1OCCN(C)C.Cl
MEASURE: DVS Sorption
RESULT_UNIT: %
TEST_VALUE: 0.76
--
COMPOUND: C=CC(=O)Nc1cc(Nc2nccc(-c3cn(C)c4ccccc34)n2)c(OC)cc1OCCN(C)C.Cc1ccc(S(=O)(=O)O)cc1
MEASURE: DVS Sorption
RESULT_UNIT: %
TEST_VALUE: 1.86

====

Assay: Dynamic vapor sorption (DVS)
Type: physicochemical
Conditions: from 0 to 80% RH
MEASURE: hygroscopicity classification according to DVS results

COMPOUND: C=CC(=O)Nc1cc(Nc2nccc(-c3cn(C)c4ccccc34)n2)c(OC)cc1OCCN(C)C.Cl
TEST_VALUE: slightly hygroscopic

COMPOUND: C=CC(=O)Nc1cc(Nc2nccc(-c3cn(C)c4ccccc34)n2)c(OC)cc1OCCN(C)C [Compound 4]
TEST_VALUE: hygroscopic

COMPOUND: C=CC(=O)Nc1cc(Nc2nccc(-c3cn(C)c4ccccc34)n2)c(OC)cc1OCCN(C)C.Cc1ccc(S(=O)(=O)O)cc1
TEST_VALUE: slightly hygroscopic

COMPOUND: C=CC(=O)Nc1cc(Nc2nccc(-c3cn(C)c4ccccc34)n2)c(OC)cc1OCCN(C)C [Compound 2]
TEST_VALUE: hygroscopic

====

Experiment: Dynamic vapor sorption (DVS)
Format: physicochemical
Details: from 0 to 80% RH
Each record here notes measured weight gain (DVS).

COMPOUND: C=CC(=O)Nc1cc(Nc2nccc(-c3cn(C)c4ccccc34)n2)c(OC)cc1OCCN(C)C [Compound 4]
weight gain (DVS): 10.60%
//
COMPOUND: C=CC(=O)Nc1cc(Nc2nccc(-c3cn(C)c4ccccc34)n2)c(OC)cc1OCCN(C)C.Cc1ccc(S(=O)(=O)O)cc1 [Compound 5]
weight gain (DVS): 1.86%
//
COMPOUND: C=CC(=O)Nc1cc(Nc2nccc(-c3cn(C)c4ccccc34)n2)c(OC)cc1OCCN(C)C.Cl [Compound 3]
weight gain (DVS): 0.76%
//
COMPOUND: C=CC(=O)Nc1cc(Nc2nccc(-c3cn(C)c4ccccc34)n2)c(OC)cc1OCCN(C)C [Compound 2]
weight gain (DVS): 14.44%
